# Method summary: Effective concentration in vitro against rabbit urethra Alpha-1 adrenergic receptor
pEC50: −log10 of the molar value.
pEC50 reference
Measured parameter: pEC50

[
  {
    "Molecule": "CC(N)C(O)c1ccccc1 (configuration not stated)",
    "Readout value": 3.64
  },
  {
    "Molecule": "COc1ccc(OC)c(C(O)CN)c1 (configuration not stated)",
    "Readout value": 5.15
  }
]

---

# Method summary: Effective concentration in vitro against rabbit urethra Alpha-1A adrenergic receptor

[
  {
    "Compound": "CCS(=O)(=O)Nc1cccc(Cc2cnc[nH]2)c1 [ABT-866]",
    "EC50 (nM)": 600
  }
]
